Assay: in vitro
Conditions: human
Assay Metric: viability at 4000 μM

[[record]]
compound = "O=P1(N(CCCl)CCCl)NCCCO1 (stereo not shown) [cyclophosphamide]"
assay_value = "70 to 80%"


----------
Tested on: normal breast tissue cells
Assay: Drug sensitivity test on SMGIR-cultured normal breast tissue (cancer-adjacent) cells from patients
Format: cell-based
Details: Homo sapiens, normal breast tissue cells from patient 71, SMGIR-cultured (FIG. 12I)
pIC50: −log10 of the molar value.
Assay Metric: pIC50

[[record]]
compound = "COc1cccc2c1C(=O)c1c(O)c3c(c(O)c1C2=O)C[C@@](O)(C(=O)CO)C[C@@H]3O[C@H]1C[C@H](N)[C@@H](O)[C@H](C)O1 [epirubicin]"
target_desc = "normal breast tissue cells"
assay_value = 6.12

